For each entry below, report its abundance fitness value.
B1: Proto-oncogene vav, residues 782 to 842; numbered along this chain, P15498 (parent)
chain: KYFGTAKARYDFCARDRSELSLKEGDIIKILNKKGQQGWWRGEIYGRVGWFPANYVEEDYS

variants of: B1; assay: abundance fitness (aPCA) (normalised: wild type 0, dead -1); higher = more abundant; growth selection in yeast, the domain comes from the species named; settings: Homo sapiens
Note: the reply should be a number with no unit written.

Task: Give the measured abundance fitness of T5P .
Result: -0.401

Task: Give the measured abundance fitness of Q36F .
Result: -0.166

Task: Give the measured abundance fitness of Y45F .
Result: 0.085

Task: Give the measured abundance fitness of K33M .
Result: -0.804

Task: Give the measured abundance fitness of L31G .
Result: -0.773

Task: Give the measured abundance fitness of G46L .
Result: -0.67

Task: Give the measured abundance fitness of E24T .
Result: -0.01

Task: Give the measured abundance fitness of V48E .
Result: -0.07

Task: Give the measured abundance fitness of F3G .
Result: -0.268

Task: Give the measured abundance fitness of E24Q .
Result: -0.072

Task: Give the measured abundance fitness of R17H .
Result: -0.076

Task: Give the measured abundance fitness of R17A .
Result: 0.056

Task: Give the measured abundance fitness of D11H .
Result: -0.503

Task: Give the measured abundance fitness of Y10H .
Result: 0.079

Task: Give the measured abundance fitness of I27H .
Result: -0.14

Task: Give the measured abundance fitness of E57N .
Result: -0.185

Task: Give the measured abundance fitness of G35T .
Result: -0.16

Task: Give the measured abundance fitness of G25R .
Result: -0.667

Task: Give the measured abundance fitness of I28A .
Result: -0.662

Task: Give the measured abundance fitness of I30Q .
Result: -0.833

Task: Give the measured abundance fitness of K33F .
Result: -0.593

Task: Give the measured abundance fitness of Q36H .
Result: 0.016

Task: Give the measured abundance fitness of I44D .
Result: -0.486

Task: Give the measured abundance fitness of Y2K .
Result: -0.392

Task: Give the measured abundance fitness of P52M .
Result: -0.38

Task: Give the measured abundance fitness of D59P .
Result: -0.371

Task: Give the measured abundance fitness of R15A .
Result: -0.418

Task: Give the measured abundance fitness of G4N .
Result: -0.166

Task: Give the measured abundance fitness of D11N .
Result: 0.086

Task: Give the measured abundance fitness of W39R .
Result: -0.241

Task: Give the measured abundance fitness of F12A .
Result: -0.537

Task: Give the measured abundance fitness of A53R .
Result: -0.151

Task: Give the measured abundance fitness of L20V .
Result: -0.577

Task: Give the measured abundance fitness of R47M .
Result: -0.393

Task: Give the measured abundance fitness of D59Q .
Result: 0.01

Task: Give the measured abundance fitness of R9N .
Result: -0.282

Task: Give the measured abundance fitness of Y55R .
Result: -0.135

Task: Give the measured abundance fitness of K7I .
Result: -0.232

Task: Give the measured abundance fitness of S18P .
Result: -0.794

Task: Give the measured abundance fitness of Q36T .
Result: -0.076

Task: Give the measured abundance fitness of R15V .
Result: -0.471

Task: Give the measured abundance fitness of A14M .
Result: -0.931

Task: Give the measured abundance fitness of E19A .
Result: -1

Task: Give the measured abundance fitness of L20C .
Result: -0.966

Task: Give the measured abundance fitness of L31E .
Result: -0.644

Task: Give the measured abundance fitness of V56A .
Result: -0.191
